System: T. confusum
assay.summary: Activity as function of time, toxic symptoms (Table 16)
Assay type: in vivo, flour beetle (T. confusum), imagos
protocol.conditions: 180 minutes; 0.33 mg/disc
assay.metric: % of insects showing toxic symptoms (%)
Report the value in % with no unit label.

# % of insects showing toxic symptoms of CC1(C)[C@H](C(=O)O[C@H](C#N)c2cccc(Oc3ccccc3)c2)[C@@H]1C=C(Cl)Cl (relative stereo) [Ia] = 49

CC1(C)[C@H](C=C(Cl)Cl)[C@H]1C(=O)O[C@H](C#N)c1cccc(Oc2ccccc2)c1 [Ig] has a reported % of insects showing toxic symptoms of 84

Noted for `CC1(C)[C@H](C=C(Cl)Cl)[C@@H]1C(=O)O[C@@H](C#N)c1cccc(Oc2ccccc2)c1` : its % of insects showing toxic symptoms reads 0

Reported % of insects showing toxic symptoms of CC1(C)[C@H](C=C(Cl)Cl)[C@H]1C(=O)O[C@H](C#N)c1cccc(Oc2ccccc2)c1 (relative stereo) [Ib] : 100

FYI, the data here is from patent US5110976A.
